Biological target: OATP1B3 (Homo sapiens)
Sequence (Q9NPD5 whole entry): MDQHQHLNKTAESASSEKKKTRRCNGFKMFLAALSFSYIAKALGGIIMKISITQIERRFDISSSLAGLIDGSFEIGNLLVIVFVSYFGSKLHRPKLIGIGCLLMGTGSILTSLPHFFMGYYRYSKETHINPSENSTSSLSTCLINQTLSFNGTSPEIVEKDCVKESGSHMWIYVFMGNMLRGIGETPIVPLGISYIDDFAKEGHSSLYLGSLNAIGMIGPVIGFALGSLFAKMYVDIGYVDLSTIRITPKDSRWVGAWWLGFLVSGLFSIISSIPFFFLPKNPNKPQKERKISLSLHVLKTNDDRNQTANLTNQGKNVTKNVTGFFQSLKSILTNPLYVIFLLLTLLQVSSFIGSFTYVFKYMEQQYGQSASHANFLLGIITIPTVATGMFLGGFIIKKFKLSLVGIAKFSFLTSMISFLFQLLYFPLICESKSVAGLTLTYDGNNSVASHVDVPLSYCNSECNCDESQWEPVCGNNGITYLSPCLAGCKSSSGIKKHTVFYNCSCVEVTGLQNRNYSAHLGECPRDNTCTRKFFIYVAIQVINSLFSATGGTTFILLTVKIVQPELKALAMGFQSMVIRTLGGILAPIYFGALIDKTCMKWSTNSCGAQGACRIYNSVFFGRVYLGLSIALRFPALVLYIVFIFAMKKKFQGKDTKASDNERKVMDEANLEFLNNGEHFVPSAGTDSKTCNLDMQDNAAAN
Test: OATP1B3 uptake transporter inhibition in MDCKII or HEK293 cells
Conditions: substrate Rosuvastatin (1 μM)
Measure Name: IC50

Compound	Measure Name	Experimental Value
COc1cc(O[C@H]2C(C)(C)[C@H](NC(=O)c3ccc(N4CCC(CN5CCN(c6ccc(C(=O)N[C@H]7CCC(=O)NC7=O)c(F)c6)CC5)CC4)cc3)C2(C)C)ccc1C#N	IC50	> 3.75 µM

###

Molecular target: BCRP (Homo sapiens)
Assay: BCRP inhibition in inside-out membrane vesicles from HEK293
Format: in vitro ADME
Set-up: expressed in transfected cells; host or cells: HEK293 (inside-out membrane vesicles)
Settings: human, probe Rosuvastatin (1 μM), substrate Rosuvastatin (1 μM), read-out: Maximal % Inhibition

Molecule	Value Unit	inhibition at 1 µM
COc1cc(O[C@H]2C(C)(C)[C@H](NC(=O)c3ccc(N4CCC(CN5CCN(c6ccc(C(=O)N[C@H]7CCC(=O)NC7=O)c(F)c6)CC5)CC4)cc3)C2(C)C)ccc1C#N [Compound A]	%	95

###

Target: Pgp (Homo sapiens, UniProt P08183)
Sequence (P08183 whole entry): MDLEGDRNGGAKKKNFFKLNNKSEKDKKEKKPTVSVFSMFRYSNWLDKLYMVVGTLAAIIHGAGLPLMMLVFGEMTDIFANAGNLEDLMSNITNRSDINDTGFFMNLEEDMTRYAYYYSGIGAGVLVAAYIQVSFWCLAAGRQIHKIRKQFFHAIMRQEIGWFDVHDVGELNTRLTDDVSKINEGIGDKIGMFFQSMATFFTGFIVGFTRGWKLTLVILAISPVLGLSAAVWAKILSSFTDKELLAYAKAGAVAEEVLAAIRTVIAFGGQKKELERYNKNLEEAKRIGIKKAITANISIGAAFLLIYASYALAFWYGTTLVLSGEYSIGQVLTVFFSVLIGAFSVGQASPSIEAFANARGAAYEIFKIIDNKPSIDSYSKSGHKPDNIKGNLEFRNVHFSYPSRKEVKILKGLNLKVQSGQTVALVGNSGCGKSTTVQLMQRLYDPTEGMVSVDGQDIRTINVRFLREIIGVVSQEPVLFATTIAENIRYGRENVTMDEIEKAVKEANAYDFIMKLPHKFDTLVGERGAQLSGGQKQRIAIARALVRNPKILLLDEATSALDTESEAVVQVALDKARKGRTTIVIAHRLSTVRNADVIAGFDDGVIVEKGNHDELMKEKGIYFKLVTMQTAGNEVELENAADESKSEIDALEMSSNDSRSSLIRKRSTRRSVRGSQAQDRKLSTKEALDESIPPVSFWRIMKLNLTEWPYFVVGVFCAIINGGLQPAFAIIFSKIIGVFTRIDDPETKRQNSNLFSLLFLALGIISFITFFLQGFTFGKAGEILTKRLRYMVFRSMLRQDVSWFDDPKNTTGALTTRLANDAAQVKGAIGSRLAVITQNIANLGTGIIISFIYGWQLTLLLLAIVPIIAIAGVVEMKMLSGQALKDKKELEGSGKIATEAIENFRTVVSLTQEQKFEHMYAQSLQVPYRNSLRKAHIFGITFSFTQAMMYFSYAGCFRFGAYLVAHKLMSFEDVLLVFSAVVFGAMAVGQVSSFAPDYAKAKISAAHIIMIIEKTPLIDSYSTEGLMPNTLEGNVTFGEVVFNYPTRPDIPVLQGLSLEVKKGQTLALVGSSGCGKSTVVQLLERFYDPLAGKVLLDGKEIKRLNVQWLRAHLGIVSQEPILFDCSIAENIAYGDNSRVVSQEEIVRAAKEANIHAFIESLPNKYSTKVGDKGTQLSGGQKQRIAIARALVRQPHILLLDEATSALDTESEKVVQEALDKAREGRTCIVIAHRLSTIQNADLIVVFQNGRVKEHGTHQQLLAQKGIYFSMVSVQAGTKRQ
Experiment: Pgp inhibition in inside-out membrane vesicles from HEK293
Format: in vitro ADME
Parameters: expressed in transfected cells; host or cells: HEK293 (inside-out membrane vesicles)
Settings: vesicle assays
pIC50: −log10 of the molar value.

Compound	Experimental Target	pIC50
COc1cc(O[C@H]2C(C)(C)[C@H](NC(=O)c3ccc(N4CCC(CN5CCN(c6ccc(C(=O)N[C@H]7CCC(=O)NC7=O)c(F)c6)CC5)CC4)cc3)C2(C)C)ccc1C#N [Compound A]	Pgp (Homo sapiens, UniProt P08183)	6.64

###

Biological target: BCRP (Homo sapiens, UniProt Q9UNQ0)
Sequence (Q9UNQ0 1-655): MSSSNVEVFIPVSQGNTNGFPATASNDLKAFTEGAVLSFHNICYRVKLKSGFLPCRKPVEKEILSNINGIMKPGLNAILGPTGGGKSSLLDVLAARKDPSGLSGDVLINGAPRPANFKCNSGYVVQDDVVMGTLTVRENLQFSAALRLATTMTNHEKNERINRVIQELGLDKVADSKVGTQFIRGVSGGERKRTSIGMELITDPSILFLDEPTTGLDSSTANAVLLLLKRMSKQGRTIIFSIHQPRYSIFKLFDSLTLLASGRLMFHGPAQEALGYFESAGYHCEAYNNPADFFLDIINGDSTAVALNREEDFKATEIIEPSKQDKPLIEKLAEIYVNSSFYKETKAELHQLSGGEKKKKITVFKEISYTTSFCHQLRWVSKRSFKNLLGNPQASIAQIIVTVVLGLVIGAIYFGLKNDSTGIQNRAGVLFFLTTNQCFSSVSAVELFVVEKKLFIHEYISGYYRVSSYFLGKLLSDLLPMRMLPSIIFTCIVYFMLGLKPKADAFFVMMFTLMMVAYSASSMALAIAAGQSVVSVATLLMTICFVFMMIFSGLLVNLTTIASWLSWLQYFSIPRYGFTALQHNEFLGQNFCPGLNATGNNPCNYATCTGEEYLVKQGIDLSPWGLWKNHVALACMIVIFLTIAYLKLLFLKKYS
Assay: BCRP inhibition, bidirectional transport in BCRP-expressed MDCKII monolayers
Type: in vitro ADME
Set-up: expressed in transfected cells; host or cells: MDCKII
Conditions: monolayer assays
pIC50: −log10 of the molar value.
Measure Name: pIC50

Compound	Experimental Value
COc1cc(O[C@H]2C(C)(C)[C@H](NC(=O)c3ccc(N4CCC(CN5CCN(c6ccc(C(=O)N[C@H]7CCC(=O)NC7=O)c(F)c6)CC5)CC4)cc3)C2(C)C)ccc1C#N [Compound A]	5.81
